Listing: remaining activity at 100 µM of selected compounds
# Study target: pseudolysin (PLN, LasB) (Pseudomonas aeruginosa, UniProt P14756)
# Construct: purchased Calbiochem (San Diego, CA, USA)
# Sequence (P14756 198-498): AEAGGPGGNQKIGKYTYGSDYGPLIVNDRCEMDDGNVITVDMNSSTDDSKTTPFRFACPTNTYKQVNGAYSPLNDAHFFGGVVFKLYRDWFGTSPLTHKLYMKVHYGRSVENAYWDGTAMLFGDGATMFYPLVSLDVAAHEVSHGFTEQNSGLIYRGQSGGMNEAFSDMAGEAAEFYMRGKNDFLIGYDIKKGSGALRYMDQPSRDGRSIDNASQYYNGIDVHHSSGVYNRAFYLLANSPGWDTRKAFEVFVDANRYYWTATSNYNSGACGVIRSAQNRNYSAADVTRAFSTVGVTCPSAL
# Procedure text: Enzyme inhibition kinetics, fluorogenic substrate ES005
# Type: biochemical
# Condition description: 0.25 h, read-out: vi/v0 (single replicate), Pseudolysin; 100 µM inhibitor; 15 min pre incubation
Measurement label: remaining activity at 100 µM (%)

{"Compound": "CCOC(=O)C(CO)CP(=O)(O)C(Cc1ccccc1)NC(=O)OCc1ccccc1 (stereo not shown)", "Measurement label": "remaining activity at 100 µM", "Recorded measurement": 83.9}
{"Compound": "CC(NC(=O)OCc1ccccc1)P(=O)(O)CC(Cc1ccccc1)C(=O)O (stereo not shown)", "Measurement label": "remaining activity at 100 µM", "Recorded measurement": 75.8}
{"Compound": "NC(=O)C(Cc1c[nH]c2ccccc12)NC(=O)C(CCCc1ccccc1)CP(=O)(O)C(Cc1ccccc1)NC(=O)OCc1ccccc1 (stereo not shown)", "Measurement label": "remaining activity at 100 µM", "Recorded measurement": 29.3}
{"Compound": "NC(=O)C(CCC(=O)O)NC(=O)C(CCC(=O)O)NC(=O)C(Cc1cc(-c2ccc(-c3cccc(Cl)c3)cc2)no1)CP(=O)(O)c1ccc(Br)cc1 (stereo not shown)", "Measurement label": "remaining activity at 100 µM", "Recorded measurement": 97.4}

* * *

# Study target: pseudolysin (PLN, LasB) (Pseudomonas aeruginosa)
# Construct: purchased Calbiochem (San Diego, CA, USA)
# Procedure text: Enzyme inhibition kinetics, fluorogenic substrate ES005
# Assay type: biochemical
# Condition description: read-out: vi/v0 avg, Pseudolysin; 100 µM inhibitor; no preincubation

{"Compound": "NC(=O)C(CCC(=O)O)NC(=O)C(CCC(=O)O)NC(=O)C(Cc1cc(-c2ccc(-c3cccc(Cl)c3)cc2)no1)CP(=O)(O)c1ccc(Br)cc1 (stereo not shown)", "remaining activity at 100 µM / %": 101}
{"Compound": "CC(NC(=O)OCc1ccccc1)P(=O)(O)CC(Cc1ccccc1)C(=O)O (stereo not shown)", "remaining activity at 100 µM / %": 75.4}
{"Compound": "CCOC(=O)C(CO)CP(=O)(O)C(Cc1ccccc1)NC(=O)OCc1ccccc1 (stereo not shown)", "remaining activity at 100 µM / %": 96.5}
{"Compound": "NC(=O)C(Cc1c[nH]c2ccccc12)NC(=O)C(CCCc1ccccc1)CP(=O)(O)C(Cc1ccccc1)NC(=O)OCc1ccccc1 (stereo not shown)", "remaining activity at 100 µM / %": 39.7}

* * *

# Study target: APMA activated MMP-9 (MMP-9(A)) (Homo sapiens)
# Construct: made in house; host or cells: Sf9 and High Five insect cells
# Sequence (P14780 107-707 limits assumed): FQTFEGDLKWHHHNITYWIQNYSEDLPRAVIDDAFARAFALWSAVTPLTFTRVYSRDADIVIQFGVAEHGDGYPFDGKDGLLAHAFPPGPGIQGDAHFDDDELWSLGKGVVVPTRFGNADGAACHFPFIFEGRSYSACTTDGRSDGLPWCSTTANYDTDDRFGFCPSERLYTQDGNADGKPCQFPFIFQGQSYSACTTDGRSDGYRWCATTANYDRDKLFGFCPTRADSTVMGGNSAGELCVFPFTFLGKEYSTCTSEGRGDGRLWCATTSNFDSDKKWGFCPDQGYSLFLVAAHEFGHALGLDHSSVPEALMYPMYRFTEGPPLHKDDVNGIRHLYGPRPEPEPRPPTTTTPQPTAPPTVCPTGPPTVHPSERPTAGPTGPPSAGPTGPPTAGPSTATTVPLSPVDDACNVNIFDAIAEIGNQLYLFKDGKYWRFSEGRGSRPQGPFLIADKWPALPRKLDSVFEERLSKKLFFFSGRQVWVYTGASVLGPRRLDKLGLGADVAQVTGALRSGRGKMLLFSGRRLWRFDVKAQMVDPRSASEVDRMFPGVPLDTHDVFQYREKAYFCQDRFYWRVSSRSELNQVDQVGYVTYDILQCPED
# Procedure text: Enzyme inhibition kinetics, fluorogenic substrate ES001
# Format: biochemical
# Condition description: MMP-9(A); 100 μM compound; in words
Measurement label: inhibitory effect on enzymatic activity

{"Compound": "NC(=O)C(CCC(=O)O)NC(=O)C(CCC(=O)O)NC(=O)C(Cc1cc(-c2ccc(-c3cccc(Cl)c3)cc2)no1)CP(=O)(O)c1ccc(Br)cc1 (centres unmarked) [H-1]", "Recorded measurement": "strong inhibition"}
{"Compound": "CC(NC(=O)OCc1ccccc1)P(=O)(O)CC(Cc1ccccc1)C(=O)O (centres unmarked) [H-4]", "Recorded measurement": "weak or no inhibition"}
{"Compound": "NC(=O)C(Cc1c[nH]c2ccccc12)NC(=O)C(CCCc1ccccc1)CP(=O)(O)C(Cc1ccccc1)NC(=O)OCc1ccccc1 (centres unmarked) [H-2]", "Recorded measurement": "strong inhibition"}
{"Compound": "CC(=O)NC(CC(C)C)C(=O)CC(C)P(=O)(O)CC(Cc1ccccc1)C(=O)O (centres unmarked) [H-3]", "Recorded measurement": "weak or no inhibition"}
{"Compound": "CCOC(=O)C(CO)CP(=O)(O)C(Cc1ccccc1)NC(=O)OCc1ccccc1 (centres unmarked) [H-5]", "Recorded measurement": "weak or no inhibition"}
